Reference source for all entries: patent US20250376533A1

- measurement_target: T1, human CD40 antigen (ACROBiosystems) (human, UniProt P25942 21-193)
- T1 construct: Bought antigen coated on ELISA plates; construct not described
- T1 sequence (P25942 21-193 limits assumed): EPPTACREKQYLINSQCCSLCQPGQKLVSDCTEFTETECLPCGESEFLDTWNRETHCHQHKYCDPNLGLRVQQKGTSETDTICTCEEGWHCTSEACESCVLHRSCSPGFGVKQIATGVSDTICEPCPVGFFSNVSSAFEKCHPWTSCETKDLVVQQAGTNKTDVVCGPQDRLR
- procedure_summary: ELISA, coated antigen
Would you kindly list EC50 for each of these binders?
Output spec: scalar in nM, unitless text.

(Q) Specify measured EC50 for anti-CD40 monoclonal antibody 1655CD (antibody, human IgG2, kappa, V domains shown) VH: EVQLVESGGGLVQPGGSLRLSCAASGFTFSNYYMSWVRQAPGKGLEWVGFIRNKANAYTTEYAASVKGRFTISRDNSKSTLYLQMNSLRAEDTAVYYCARYGGLKIGWYFDLWGQGTLVTVSS VL: DIQMTQSPSSLSASVGDRVTITCRASQTISSYLNWYQQKPGKAPKLLIYYTSTLQSGVPSRFSGSGSGTDYTLTISSLQPEDFATYYCQQGNAYPWTFGGGTKVEIKR .
(A) 0.024

(Q) Assign EC50 to the following record: anti-CD40 monoclonal antibody 1654CD (antibody, human IgG2, kappa, V domains shown) VH: EVQLVESGGGLVQPGGSLRLSCAASGFTFSNYYMSWVRQAPGKGLEWVGFIRNKANAYTTEYAASVKGRFTISRDNSKSTLYLQMNRLRAEDTAVYYCARYGGLKVGWYFDLWGQGTLVTVSS VL: DIQMTQSPSSLSASVGDRVTITCRASQSISNYLAWYQQKPGKAPKLLIYAASSLQSGVPSRFSGSGSGTDYTLTISSLQPEDFATYYCQQGSSYPWTFGGGTKVEIKR
(A) 0.014

(Q) Return EC50 for the following binder: anti-CD40 monoclonal antibody 1607CD (antibody, human IgG2, kappa, V domains shown) VH: EVQLVESGGGLVQPGGSLRLSCAASGFTFSDYYMSWVRQAPGKGLEWVGFIRNKANGYTTEYAASVKGRFTISRDNSKSTLYLQMNSLRAEDTAVYYCARYGGLKKGWYFDLWGQGTLVTVSS VL: DIQMTQSPSSLSASVGDRVTITCRASQGIRNYLNWYQQKPGKAPKLLIYYTSSLQSGVPSRFSGSGSGTDYTLTISSLQPEDFATYYCQQGINLPWTFGGGTKVEIKR
(A) 0.021

(Q) Hello, please tell me recorded EC50 for this one: anti-CD40 monoclonal antibody 1606CD (antibody, human IgG2, kappa, V domains shown) VH: EVQLVESGGGLVQPGGSLRLSCAASGFTFSDYYMSWVRQAPGKGLEWVGFIRNKANGYTTEYAASVKGRFTISRDNSKNTLYLQMNSLRAEDTAVYYCARYGGLRQGWYFDVWGQGTLVTVSS VL: DIQMTQSPSSLSASVGDRVTITCRASQDIRNYLNWYQQKPGKAPKLLIYYTSRRDSGVPSRFSGSGSGTDYTLTISSLQPEDFATYFCQQGKTLPWTFGGGTKVEIKR
(A) 0.024

(Q) Tell me EC50 reported for anti-CD40 monoclonal antibody 1609CD (antibody, human IgG2, kappa, V domains shown) VH: EVQLVESGGGLVQPGGSLRLSCAASGFTFSNYYMSWVRQAPGKGLEWVGFIRNKANGYTTEYAASVKGRFTISRDNSKSTLYLQMNSLRAEDTAVYYCARYGGLKIGWYFDLWGQGTLVTVSS VL: DIQMTQSPSSLSASVGDRVTITCRASQTISSYLNWYQQKPGKAPKLLIYYTSTLQSGVPSRFSGSGSGTDYTLTISSLQPEDFATYYCQQGNAYPWTFGGGTKVEIKR
(A) 0.022
